# systemName: human EP2 prostanoid receptors (Homo sapiens, UniProt P43116)
# Construct: expressed in transfected cells; host or cells: HEK-293
# Sequence (P43116 whole entry): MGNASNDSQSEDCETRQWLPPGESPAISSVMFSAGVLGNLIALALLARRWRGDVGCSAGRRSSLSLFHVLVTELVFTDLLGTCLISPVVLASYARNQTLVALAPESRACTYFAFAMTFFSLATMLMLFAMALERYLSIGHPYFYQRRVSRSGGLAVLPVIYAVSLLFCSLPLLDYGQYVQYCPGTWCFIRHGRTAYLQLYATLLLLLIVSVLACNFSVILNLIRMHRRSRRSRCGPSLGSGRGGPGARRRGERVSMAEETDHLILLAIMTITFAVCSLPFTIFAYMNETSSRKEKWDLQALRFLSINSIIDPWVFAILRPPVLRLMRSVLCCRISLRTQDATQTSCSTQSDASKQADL
# protocolDetails: Agonist activity at recombinant human EP2 prostanoid receptors (cAMP in HEK-293 clones)
# Type: cell-based
# conditions: functional classification at EP2
quantityMeasured: activity (EP2 part)

Known activity (EP2 part) results, listed for orientation:
>  <smilesRepr>
O=C(O)CCc1cccc(NC(=O)c2ccc(-c3ccc(F)cc3)o2)c1

>  <quantityMeasured>
activity (EP2 part)

>  <measValue>
EP2 Agonist

$$$$
>  <smilesRepr>
O=C(O)COc1cccc(NC(=O)c2ccc(-c3cccc(Cl)c3)o2)c1

>  <quantityMeasured>
activity (EP2 part)

>  <measValue>
EP2 agonist/

$$$$
>  <smilesRepr>
O=C(O)c1cc2cc(NC(=O)c3ccc(-c4cccc(Cl)c4)o3)ccc2[nH]1

>  <quantityMeasured>
activity (EP2 part)

>  <measValue>
EP2 agonist/

$$$$
>  <smilesRepr>
O=C(O)COc1cccc(NC(=O)c2cc(-c3cc(Cl)cc(Cl)c3)ccc2F)c1

>  <quantityMeasured>
activity (EP2 part)

>  <measValue>
EP2 Agonist

$$$$
>  <smilesRepr>
O=C(O)Cc1cccc(NC(=O)c2cc(-c3ccccc3)ccc2Cl)c1

>  <quantityMeasured>
activity (EP2 part)

>  <measValue>
EP2 agonist

$$$$

Prompt line: What activity (EP2 part) appears in the records for this compound with human EP2 prostanoid receptors (Homo sapiens, UniProt P43116)? O=C(O)Cc1cccc(NC(=O)c2ccc(-c3cccc(F)c3)o2)c1
Response line: EP2 Agonist

Prompt line: # query: activity (EP2 part) | item O=C(O)COc1cccc(NC(=O)c2ccc(-c3ccc(F)cc3)o2)c1 | system: human EP2 prostanoid receptors (Homo sapiens, UniProt P43116)
Response line: EP2 Agonist

Prompt line: Notebook entry, human EP2 prostanoid receptors (Homo sapiens, UniProt P43116) assay: activity (EP2 part) of O=C(O)Cc1cccc(NC(=O)c2ccc(-c3ccc(Cl)c(Cl)c3)o2)c1 = ?
Response line: EP2 agonist

Prompt line: Return activity (EP2 part) measured with human EP2 prostanoid receptors (Homo sapiens, UniProt P43116) given this compound: O=C(O)Cc1cccc(NC(=O)c2ccc(-c3ccc4[nH]ccc4c3)o2)c1
Response line: EP2 agonist
